tested on: UACC-257 melanoma; experiment: NCI tumour cell line growth inhibition, 48 h
# TGI per entry

As a guide, the following entries are already answered.
molecule	TGI
OC(COc1ccc(Cl)cc1Cl)CN1CCCC1 (stereo not given)	60.2 µM
CC(/C=N/NC1=NCCCCN1)=N\NC1=NCCCCN1	> 100 µM
O=C1CCC2=C(CCC2)N1CCc1ccc2c(c1)OCO2	> 100 µM
N=C(N)n1[nH]c2c(c1=O)CCC2	> 100 µM
Cc1ccc(O)c(Cc2nc3ccccc3nc2-c2cccc(Br)c2)c1	> 100 µM
CC(O)(c1ccccc1)c1nccc2ccccc12 (stereo not given)	> 100 µM
NCCCCNCCCN	> 100 µM
CN(N)C(=O)NCCCl	> 100 µM

# lookup: Cc1ccc(NC(=O)c2cccc([N+](=O)[O-])c2O)c(C)c1 on UACC-257 melanoma, TGI = 66.2 µM

Reading of TGI for Cn1cc2ccccc2c1-c1nc(F)nc(Oc2ccc3c(c2)CC[C@@H]2C3CC[C@]3(C)C(O)CCC23)n1 (stereo not given in full) with UACC-257 melanoma: 36.3 µM

Record FC1CCN(C2(c3cccs3)CCCCC2)CC1 / UACC-257 melanoma, TGI recorded as > 100 µM

The reported TGI value, UACC-257 melanoma, for O=C1C[C@@H](c2ccccc2)NCCCCN(O)CCCN1 reads > 100 µM

Note to self: TGI of CCOC(=O)N(CC)c1c(C(F)(F)F)cc(-c2ccccc2)[nH]c1=O with UACC-257 melanoma was > 100 µM

Readout TGI for COc1ccc2oc(-c3ccncc3)cc(=O)c2c1 , test system UACC-257 melanoma, was > 100 µM

Case CCCCNC(=S)/N=C/c1c(O)c2ccccc2oc1=O , UACC-257 melanoma, TGI recorded as > 100 µM

Form field TGI for item Cc1ccccc1NC(=S)N/N=C(/c1ccccc1)c1ccccn1 on UACC-257 melanoma: 0.357 µM

The molecule O=C(NCCO)c1c(O)c2ccccc2[nH]c1=O on UACC-257 melanoma: TGI was > 100 µM

Record for O=C1c2cnccc2Cc2cccc3c2N1c1ccccc1S3 under target or system UACC-257 melanoma: TGI reported as 59 µM

Noted TGI for COC(=O)c1ccc(C)cc1C1CN=NC12Cc1cc(C)c(C)cc1C2=O (stereo not given) , tested on UACC-257 melanoma: > 100 µM

Observed TGI on UACC-257 melanoma, entry Cc1cccc2c(N)c3cccc(C(=O)NCC[N+](C)(C)Cc4sc(N5CCOCC5)nc4[N+](=O)[O-])c3nc12 , equals 43 µM
